tested on: Enterobacter cloacae P99; test: MIC, two-fold agar dilution; format: cell-based; conditions: Muller-Hinton agar, 37° C., 20 hours
readout.label: minimal inhibitory concentration (MIC)

// minimal inhibitory concentration (MIC) lookup, molecule = "Nc1cc(N)nc(SCC2=C(C(=O)O)N3C(=O)[C@@H](NC(=O)/C(=N\O[C@@H](C(=O)O)c4ccc(O)c(O)c4)c4csc(N)n4)[C@H]3SC2)n1" , result: 32

// minimal inhibitory concentration (MIC) lookup, molecule = "Nc1nc(/C(=N/O[C@H](C(=O)O)c2ccc(O)c(O)c2)C(=O)N[C@@H]2C(=O)N3C(C(=O)O)=C(CSc4nc(N)c5c(n4)CCC5)CS[C@H]23)cs1" , result: 8

// minimal inhibitory concentration (MIC) lookup, molecule = "Nc1cc(SCC2=C(C(=O)O)N3C(=O)[C@@H](NC(=O)/C(=N\O[C@H](C(=O)O)c4ccc(O)c(O)c4)c4csc(N)n4)[C@H]3SC2)ncn1" , result: 8

// minimal inhibitory concentration (MIC) lookup, molecule = "Cc1c(N)nc(SCC2=C(C(=O)O)N3C(=O)[C@@H](NC(=O)/C(=N\O[C@H](C(=O)O)c4ccc(O)c(O)c4)c4csc(N)n4)[C@H]3SC2)nc1N" , result: 8

// minimal inhibitory concentration (MIC) lookup, molecule = "Nc1cc(SCC2=C(C(=O)O)N3C(=O)[C@@H](NC(=O)/C(=N\O[C@@H](C(=O)O)c4ccc(O)c(O)c4)c4csc(N)n4)[C@H]3SC2)ncn1" , result: 8

// minimal inhibitory concentration (MIC) lookup, molecule = "Nc1ccnc(SCC2=C(C(=O)O)N3C(=O)[C@@H](NC(=O)/C(=N\O[C@H](C(=O)O)c4ccc(O)c(O)c4)c4csc(N)n4)[C@H]3SC2)n1" , result: 8

// minimal inhibitory concentration (MIC) lookup, molecule = "Nc1ccnc(SCC2=C(C(=O)O)N3C(=O)[C@@H](NC(=O)/C(=N\O[C@@H](C(=O)O)c4ccc(O)c(O)c4)c4csc(N)n4)[C@H]3SC2)n1" , result: 16

// minimal inhibitory concentration (MIC) lookup, molecule = "Nc1nc(/C(=N/O[C@H](C(=O)O)c2ccc(O)c(O)c2)C(=O)N[C@@H]2C(=O)N3C(C(=O)O)=C(CSc4nc(N)c(N)c(N)n4)CS[C@H]23)cs1" , result: 8

// minimal inhibitory concentration (MIC) lookup, molecule = "Nc1cc(SCC2=C(C(=O)O)N3C(=O)[C@@H](NC(=O)/C(=N\O[C@@H](C(=O)O)c4ccc(O)c(O)c4)c4csc(N)n4)[C@H]3SC2)nc(N)n1" , result: 8

// minimal inhibitory concentration (MIC) lookup, molecule = "Nc1cc(SCC2=C(C(=O)O)N3C(=O)[C@@H](NC(=O)/C(=N\O[C@H](C(=O)O)c4ccc(O)c(O)c4)c4csc(N)n4)[C@H]3SC2)nc(N)n1" , result: 8

// minimal inhibitory concentration (MIC) lookup, molecule = "Nc1nc(/C(=N/O[C@@H](C(=O)O)c2ccc(O)c(O)c2)C(=O)N[C@@H]2C(=O)N3C(C(=O)O)=C(CSc4nc(N)c(N)c(N)n4)CS[C@H]23)cs1" , result: 32

----------
Give minimal inhibitory concentration (MIC) for every item shown.
test system: Staphylococcus epidermidis 887E; experiment: MIC, two-fold agar dilution; format: cell-based; settings: Muller-Hinton agar, 37° C., 20 hours
// print number alone

// minimal inhibitory concentration (MIC) lookup, molecule = Nc1nc(/C(=N/O[C@@H](C(=O)O)c2ccc(O)c(O)c2)C(=O)N[C@@H]2C(=O)N3C(C(=O)O)=C(CSc4nc(N)c5c(n4)CCC5)CS[C@H]23)cs1 [Compound I-4R] , result: 32

// minimal inhibitory concentration (MIC) lookup, molecule = Nc1cc(N)nc(SCC2=C(C(=O)O)N3C(=O)[C@@H](NC(=O)/C(=N\O[C@H](C(=O)O)c4ccc(O)c(O)c4)c4csc(N)n4)[C@H]3SC2)n1 [Compound I-1S] , result: 32

// minimal inhibitory concentration (MIC) lookup, molecule = Nc1nc(/C(=N/O[C@H](C(=O)O)c2ccc(O)c(O)c2)C(=O)N[C@@H]2C(=O)N3C(C(=O)O)=C(CSc4nc(N)c5c(n4)CCC5)CS[C@H]23)cs1 [Compound I-4S] , result: 32

----------
system: E. coli TEM7 3457E; assay: MIC, two-fold agar dilution; format: cell-based; conditions: Muller-Hinton agar, 37° C., 20 hours
Give minimal inhibitory concentration (MIC) for every item shown.

// minimal inhibitory concentration (MIC) lookup, compound = "Nc1nc(/C(=N/O[C@@H](C(=O)O)c2ccc(O)c(O)c2)C(=O)N[C@@H]2C(=O)N3C(C(=O)O)=C(CSc4nc(N)c5c(n4)CCC5)CS[C@H]23)cs1" , result: 0.063

// minimal inhibitory concentration (MIC) lookup, compound = "Nc1cc(SCC2=C(C(=O)O)N3C(=O)[C@@H](NC(=O)/C(=N\O[C@@H](C(=O)O)c4ccc(O)c(O)c4)c4csc(N)n4)[C@H]3SC2)nc(N)n1" , result: 0.016

// minimal inhibitory concentration (MIC) lookup, compound = "Nc1cc(N)nc(SCC2=C(C(=O)O)N3C(=O)[C@@H](NC(=O)/C(=N\O[C@@H](C(=O)O)c4ccc(O)c(O)c4)c4csc(N)n4)[C@H]3SC2)n1" , result: 0.063

----------
tested on: Staphylococcus aureus giorgio; assay: MIC, two-fold agar dilution; format: cell-based; settings: Muller-Hinton agar, 37° C., 20 hours
readout.label: minimal inhibitory concentration (MIC)
// print number alone

// minimal inhibitory concentration (MIC) lookup, compound = Nc1nc(/C(=N/O[C@H](C(=O)O)c2ccc(O)c(O)c2)C(=O)N[C@@H]2C(=O)N3C(C(=O)O)=C(CSc4nc(N)c(N)c(N)n4)CS[C@H]23)cs1 [Compound I-5S] , result: 1

// minimal inhibitory concentration (MIC) lookup, compound = Nc1nc(/C(=N/O[C@@H](C(=O)O)c2ccc(O)c(O)c2)C(=O)N[C@@H]2C(=O)N3C(C(=O)O)=C(CSc4nc(N)c(N)c(N)n4)CS[C@H]23)cs1 [Compound I-5R] , result: 1

// minimal inhibitory concentration (MIC) lookup, compound = CC(C)(O/N=C(\C(=O)N[C@@H]1C(=O)N2C(C(=O)[O-])=C(C[n+]3ccccc3)CS[C@H]12)c1csc(N)n1)C(=O)O [Ceftazidime, reference compound] , result: 4

----------
system: Staphylococcus aureus giorgio; experiment: MIC, two-fold agar dilution; assay type: cell-based; conditions: Muller-Hinton agar, 37° C., 20 hours
Give minimal inhibitory concentration (MIC) for every item shown.

// minimal inhibitory concentration (MIC) lookup, molecule = "Nc1cc(SCC2=C(C(=O)O)N3C(=O)[C@@H](NC(=O)/C(=N\O[C@H](C(=O)O)c4ccc(O)c(O)c4)c4csc(N)n4)[C@H]3SC2)ncn1" , result: 1

// minimal inhibitory concentration (MIC) lookup, molecule = "Nc1cc(N)nc(SCC2=C(C(=O)O)N3C(=O)[C@@H](NC(=O)/C(=N\O[C@H](C(=O)O)c4ccc(O)c(O)c4)c4csc(N)n4)[C@H]3SC2)n1" , result: 1

// minimal inhibitory concentration (MIC) lookup, molecule = "Cc1c(N)nc(SCC2=C(C(=O)O)N3C(=O)[C@@H](NC(=O)/C(=N\O[C@H](C(=O)O)c4ccc(O)c(O)c4)c4csc(N)n4)[C@H]3SC2)nc1N" , result: 1

// minimal inhibitory concentration (MIC) lookup, molecule = "Nc1cc(SCC2=C(C(=O)O)N3C(=O)[C@@H](NC(=O)/C(=N\O[C@H](C(=O)O)c4ccc(O)c(O)c4)c4csc(N)n4)[C@H]3SC2)nc(N)n1" , result: 1

// minimal inhibitory concentration (MIC) lookup, molecule = "Cc1c(N)nc(SCC2=C(C(=O)O)N3C(=O)[C@@H](NC(=O)/C(=N\O[C@@H](C(=O)O)c4ccc(O)c(O)c4)c4csc(N)n4)[C@H]3SC2)nc1N" , result: 1

// minimal inhibitory concentration (MIC) lookup, molecule = "Nc1nc(/C(=N/O[C@H](C(=O)O)c2ccc(O)c(O)c2)C(=O)N[C@@H]2C(=O)N3C(C(=O)O)=C(CSc4nc(N)c5c(n4)CCC5)CS[C@H]23)cs1" , result: 1

// minimal inhibitory concentration (MIC) lookup, molecule = "Nc1cc(N)nc(SCC2=C(C(=O)O)N3C(=O)[C@@H](NC(=O)/C(=N\O[C@@H](C(=O)O)c4ccc(O)c(O)c4)c4csc(N)n4)[C@H]3SC2)n1" , result: 1

// minimal inhibitory concentration (MIC) lookup, molecule = "Nc1nc(/C(=N/O[C@@H](C(=O)O)c2ccc(O)c(O)c2)C(=O)N[C@@H]2C(=O)N3C(C(=O)O)=C(CSc4nc(N)c5c(n4)CCC5)CS[C@H]23)cs1" , result: 2

// minimal inhibitory concentration (MIC) lookup, molecule = "Nc1cc(SCC2=C(C(=O)O)N3C(=O)[C@@H](NC(=O)/C(=N\O[C@@H](C(=O)O)c4ccc(O)c(O)c4)c4csc(N)n4)[C@H]3SC2)nc(N)n1" , result: 1

// minimal inhibitory concentration (MIC) lookup, molecule = "Nc1cc(SCC2=C(C(=O)O)N3C(=O)[C@@H](NC(=O)/C(=N\O[C@@H](C(=O)O)c4ccc(O)c(O)c4)c4csc(N)n4)[C@H]3SC2)ncn1" , result: 2

// minimal inhibitory concentration (MIC) lookup, molecule = "Nc1ccnc(SCC2=C(C(=O)O)N3C(=O)[C@@H](NC(=O)/C(=N\O[C@@H](C(=O)O)c4ccc(O)c(O)c4)c4csc(N)n4)[C@H]3SC2)n1" , result: 2

// minimal inhibitory concentration (MIC) lookup, molecule = "Nc1ccnc(SCC2=C(C(=O)O)N3C(=O)[C@@H](NC(=O)/C(=N\O[C@H](C(=O)O)c4ccc(O)c(O)c4)c4csc(N)n4)[C@H]3SC2)n1" , result: 1

The reported numbers originate from patent US5571804A.
